REPORTED ENDPOINT: log10 vapour pressure (mmHg)
// return a plain number; no unit text

INSERT INTO results (compound, reported_endpoint, measured) VALUES
  ('CC(C)(O)C(=O)O', 'log10 vapour pressure (mmHg)', -2.06),
  ('CCCCC(CC)CO (stereo unspecified)', 'log10 vapour pressure (mmHg)', -0.867),
  ('CCOC(C)OCC', 'log10 vapour pressure (mmHg)', 1.44),
  ('O=C(Oc1ccccc1)c1ccccc1', 'log10 vapour pressure (mmHg)', -2.77),
  ('CCN(CC)c1nc(C)cc(OP(=S)(OC)OC)n1', 'log10 vapour pressure (mmHg)', -4.82);

query: Return reported log10 vapour pressure (mmHg); argument: `Cl[Si](Cl)(Cl)c1ccccc1`
result: -0.371

query: Same question, `COC(=O)c1ccccc1S(=O)(=O)NC(=O)N(C)c1nc(C)nc(OC)n1` this time
result: -9.41

====

# COND: fish
Overview of recorded log10 BCF for various compounds
// return a plain number; no unit text

Here's what some known entries look like.
INSERT INTO measurements (compound, measured) VALUES
  ('CS(C)=O', 0.6),
  ('O=C(O)c1ccc(Cl)c(Cl)c1', 0.36),
  ('Clc1ccc(Cl)c(-c2cc(Cl)ccc2Cl)c1', 4.26);

query: Return reported log10 BCF; argument: `O=[N+]([O-])c1ccc2[nH]cnc2c1`
result: 0.4

query: Same question, O=C1C2CC=CCC2C(=O)N1SC(Cl)(Cl)Cl (stereo not drawn) this time
result: 1.98

query: Same question, `COP(=S)(OC)Oc1ccc(C#N)cc1` this time
result: 1.56

====

Each record's melting point is compared with Low (below 70 °C), Medium (70 °C to below 100 °C), High (100 °C or more) to give its class.

INSERT INTO assay_data (compound, assigned_label) VALUES
  ('CNC(=O)Oc1ccc(SC)c(C)c1', 'High'),
  ('Fc1ccc(Cl)cc1', 'Low'),
  ('COP(=O)(OC)OC(Br)C(Cl)(Cl)Br (stereo not given)', 'Low'),
  ('O=C(O)c1ccc2ccccc2c1O', 'High');

query: Which class is correct for the following compound? `CCOc1ccc(C(N)=O)cc1`
result: High

query: Same question, `O=C(O)c1cc([N+](=O)[O-])ccc1O` this time
result: High

query: Same question, `Cc1ccccc1` this time
result: Low

query: Same question, CCC(C)C=O (stereo not given) this time
result: Medium

query: Same question, `c1cnc2cccnc2c1` this time
result: Medium

query: Same question, `OC(O)C(Br)(Br)Br` this time
result: Low

query: Same question, `C[C@@H]1N[C@@H]2CCCCCCCC(=O)O[C@H]3CC[C@@H](CCCCCCCC(=O)O[C@H]1CC2)N[C@H]3C` this time
result: High

query: Same question, `CN1C(=O)C(=NNC(N)=S)c2ccccc21` this time
result: High

query: Same question, `Cc1ncsc1C` this time
result: Medium

====

Label Criterion met when log10 Henry constant (atm·m³/mol) is strictly below -4; otherwise label Criterion not met.

INSERT INTO assay_data (compound, assigned_label) VALUES
  ('CCC(O)CO[N+](=O)[O-] (stereo not given)', 'Criterion met');

query: Input `Oc1c(Cl)c(Cl)c(Cl)c(Cl)c1Cl` ; condition: log10 Henry constant (atm·m³/mol) strictly below -4. Does it hold?
result: Criterion met

query: Same question, `Clc1ccc(-c2ccccc2Cl)cc1` this time
result: Criterion not met

query: Same question, ClC1=C(Cl)[C@]2(Cl)[C@H]3[C@H]([C@@H]4C=C[C@H]3C4)[C@@]1(Cl)C2(Cl)Cl (racemic) this time
result: Criterion met

====

Each record's melting point is compared with lo = under 10 °C, med = from 10 °C up to 100 °C, hi = 100 °C and over to give its class.

These recorded examples may help you get a feel for the data.
INSERT INTO assay_data (compound, assigned_label) VALUES
  ('O=[N+]([O-])C(Br)(CO)CO', 'hi'),
  ('CC1(c2ccc(Oc3ccccc3)cc2)OC(=O)N(Nc2ccccc2)C1=O (configuration not stated)', 'hi'),
  ('N#Cc1ccc(Cl)cc1', 'med');

query: Which class is correct for the following compound? `Sc1nc2ccccc2s1`
result: hi

query: Same question, CCC(Nc1ncnc(C)c1Cl)c1ccc(OC(F)F)cc1 (configuration not stated) this time
result: med

query: Same question, `Cc1ccc(C)c(N)c1` this time
result: med

query: Same question, `CCSC(C)C` this time
result: lo

query: Same question, `CCCCCCCCC(=O)OCCCCC` this time
result: lo

query: Same question, `Nc1nc(Cl)cc(Cl)n1` this time
result: hi

====

REPORTED ENDPOINT: solubility (mM)
Write the answer as a number in mM, unit excluded.

query: Return reported solubility; argument: CCOP(=O)(OCC)SCS(=O)CC (stereo unspecified)
result: 30.7

====

# COND: fish
Overview of recorded log10 biotransformation half-life (days) for various compounds
// return a plain number; no unit text

Here's what some known entries look like.
INSERT INTO assay_data (compound, measured) VALUES
  ('CCOCC', -0.7),
  ('O=[N+]([O-])c1ccc2[nH]cnc2c1', -1.15),
  ('C=CCCCCCCCCC', 0.09),
  ('Clc1c(Cl)c(Cl)c2c(Cl)c(Cl)c(Cl)c(Cl)c2c1Cl', 1.62);

query: Return reported log10 biotransformation half-life (days); argument: `Clc1cc(Cl)c(-c2ccc(Cl)c(Cl)c2Cl)cc1Cl`
result: 2.59

query: Same question, CCCCC(CC)COC(=O)c1ccccc1C(=O)OCC(CC)CCCC (stereo not drawn) this time
result: 0.44

query: Same question, `Clc1ccc(Cl)c(Cl)c1Cl` this time
result: 0.69

query: Same question, `CC1(C)[C@H](C(=O)O[C@H](C#N)c2cccc(Oc3ccccc3)c2)[C@@H]1C=C(Br)Br` this time
result: 0.51

query: Same question, `Clc1ccc(-c2c(Cl)cc(Cl)c(Cl)c2Cl)c(Cl)c1Cl` this time
result: 2.52

query: Same question, `C=C(C)CCCCCCCCC` this time
result: 0.17

query: Same question, `Cc1c2ccccc2cc2ccccc12` this time
result: 0.23

query: Same question, CCOC(=O)CC(SP(=S)(OC)OC)C(=O)OCC (stereo not drawn) this time
result: 0.29

====

REPORTED ENDPOINT: boiling point (°C)
Write the answer as a number in °C, unit excluded.

Here's what some known entries look like.
INSERT INTO measurements (molecule, measured) VALUES
  ('CCCCCCCCCCC1CCCCC1', 299),
  ('C=CC(Cl)(Cl)Cl', 114),
  ('C=C(C)OC(C)=O', 97),
  ('CCOC(O)C(Cl)(Cl)Cl (configuration not stated)', 116),
  ('CCOCc1ccco1', 149),
  ('CC1(C)CCCc2ccccc21', 221);

query: Return reported boiling point; argument: `c1ccc(CN2CCOCC2)cc1`
result: 260

query: Same question, `CC(C)Sc1ccccc1` this time
result: 208

====

Label 1.0 when melting point is strictly below 90 °C; otherwise label 0.0.

These recorded examples may help you get a feel for the data.
INSERT INTO results (compound, assigned_label) VALUES
  ('Cc1ccc(Cl)cc1[N+](=O)[O-]', 1.0),
  ('CCCCCCCCCCCCc1ccccc1', 1.0),
  ('O=C(O)c1cc([N+](=O)[O-])cc([N+](=O)[O-])c1O', 0.0),
  ('CC(=O)Oc1ccccc1C(=O)Oc1ccccc1C(=O)O', 0.0),
  ('c1ccc2c(c1)CCc1ccccc1N2C1CN2CCC1CC2 (stereo not given)', 0.0);

query: Input `COC(=O)c1c[nH]c2ccccc12` ; condition: melting point strictly below 90 °C. Does it hold?
result: 0.0

query: Same question, `CC(C)N(C(=O)CCl)c1ccccc1` this time
result: 1.0

query: Same question, `CCCCCC#N` this time
result: 1.0

query: Same question, O=C(NCC1CCCCN1)c1cc(OCC(F)(F)F)ccc1OCC(F)(F)F (stereo not given) this time
result: 0.0

query: Same question, `Clc1ccnc2ccccc12` this time
result: 1.0

query: Same question, `Fc1ccc(Br)cc1` this time
result: 1.0

query: Same question, `CO[C@H](C(=O)c1ccccc1)c1ccccc1` this time
result: 1.0

query: Same question, `CN(C)CCc1c[nH]c2cccc(OP(=O)(O)O)c12` this time
result: 0.0

query: Same question, `O=C(O)C=Cc1cccc([N+](=O)[O-])c1` this time
result: 0.0

query: Same question, CCCC(C)I (stereo not given) this time
result: 1.0

query: Same question, `CNC(=O)Oc1ccccc1OC(C)C` this time
result: 1.0

query: Same question, CCOP(=S)(OCC)SC1OCCOC1SP(=S)(OCC)OCC (stereo not given) this time
result: 1.0

query: Same question, `Cc1ccc(N=Nc2ccccc2)cc1` this time
result: 1.0

query: Same question, `CC(C)(C)C(=O)CC#N` this time
result: 1.0

query: Same question, `O=C1CCSc2ccccc21` this time
result: 1.0

query: Same question, `FC(F)(F)c1ccc(Cl)cc1Cl` this time
result: 1.0
